Experiment: in vivo
Conditions: mouse, ip
Counter-ions that a name gives are not always drawn.
experimentalReadout: LD50 (mg/kg)
All answers are understood in mg/kg, so give the number only.

Some compounds with recorded LD50:
NCCCCOc1ccccc1-c1ccccc1 [2-(4-aminobutoxy)diphenyl hydrochloride] = 137
CN(C)CCCCOc1ccccc1-c1ccccc1 [hydrochloride] = 100

Kindly note the recorded LD50 for CNCCCCOc1ccccc1-c1ccccc1 [hydrochloride] , which is 78
